STUDY SYSTEM: Kappa-type opioid receptor (Cavia porcellus, UniProt P41144)
Sequence (P41144 whole entry): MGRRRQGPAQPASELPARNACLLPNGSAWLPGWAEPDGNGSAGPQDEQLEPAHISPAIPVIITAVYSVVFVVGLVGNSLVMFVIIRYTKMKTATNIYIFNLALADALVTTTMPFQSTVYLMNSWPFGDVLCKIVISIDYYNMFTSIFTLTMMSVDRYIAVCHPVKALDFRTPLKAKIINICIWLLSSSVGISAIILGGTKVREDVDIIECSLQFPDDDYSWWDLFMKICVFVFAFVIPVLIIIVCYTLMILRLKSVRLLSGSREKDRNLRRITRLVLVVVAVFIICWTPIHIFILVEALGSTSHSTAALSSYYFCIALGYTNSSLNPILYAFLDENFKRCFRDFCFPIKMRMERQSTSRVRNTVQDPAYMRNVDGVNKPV
ASSAY SUMMARY: Affinity at K opioid receptor on membranes prepared from guinea pig cerebellum by [3H]- 69593 displacement.
Assay type: tissue-based
ASSAY CONTEXT: read-out: Ki
# pKi values compiled below
# pKi is unitless: minus log10 of the molar concentration; print number only

Observe how each entry below is paired with its result.
{"columns": ["MOLECULE", "pKi"],
 "data": [
  ["CN(C(=O)C(c1ccccc1)C1CCCCC1)[C@H](CN1CC[C@H](O)C1)c1ccccc1 (stereo in doubt; form 1)", 8.00],
  ["CN(C(=O)C1c2ccccc2Cc2ccccc21)[C@H](CN1CC[C@H](O)C1)c1ccccc1", 8.40],
  ["CC(=O)Nc1cccc([C@@H](CN2CC[C@H](O)C2)N(C)C(=O)C(c2ccccc2)c2ccccc2)c1", 8.22],
  ["CN(C(=O)C1c2ccccc2Sc2ccccc21)[C@H](CN1CC[C@H](O)C1)c1ccccc1", 8.00]
]}

# next molecule below
QUERY: Tell me reported pKi for `CN(C(=O)C(c1ccccc1)c1ccccc1)[C@H](CN1CC[C@H](O)C1)c1ccc(O)cc1` , tested with Kappa-type opioid receptor (Cavia porcellus, UniProt P41144).
RESULT: 8.22
